- STUDY SYSTEM: TrkB (Homo sapiens, UniProt Q16620)
- Sequence (Q16620 32-822): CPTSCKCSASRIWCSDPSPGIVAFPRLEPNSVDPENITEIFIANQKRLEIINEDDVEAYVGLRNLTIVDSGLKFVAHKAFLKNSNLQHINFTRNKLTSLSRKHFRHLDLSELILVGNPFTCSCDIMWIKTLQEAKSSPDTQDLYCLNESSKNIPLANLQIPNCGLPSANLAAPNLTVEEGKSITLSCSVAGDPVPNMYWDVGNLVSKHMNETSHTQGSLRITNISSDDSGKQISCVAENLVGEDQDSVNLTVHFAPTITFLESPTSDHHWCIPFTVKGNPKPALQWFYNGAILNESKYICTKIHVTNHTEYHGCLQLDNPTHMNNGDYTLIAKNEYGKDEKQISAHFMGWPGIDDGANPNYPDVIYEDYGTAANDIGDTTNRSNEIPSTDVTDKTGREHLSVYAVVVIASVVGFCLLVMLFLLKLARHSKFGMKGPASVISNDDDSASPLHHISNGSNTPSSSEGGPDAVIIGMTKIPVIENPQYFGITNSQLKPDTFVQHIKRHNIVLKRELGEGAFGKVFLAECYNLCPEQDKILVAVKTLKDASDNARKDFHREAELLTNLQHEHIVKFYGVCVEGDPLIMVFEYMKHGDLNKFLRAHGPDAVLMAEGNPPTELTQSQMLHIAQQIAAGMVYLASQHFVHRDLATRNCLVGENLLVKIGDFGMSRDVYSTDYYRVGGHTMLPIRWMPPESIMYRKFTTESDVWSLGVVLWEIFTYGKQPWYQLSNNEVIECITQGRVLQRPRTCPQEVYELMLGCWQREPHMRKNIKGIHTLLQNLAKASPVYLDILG
OBSERVATION TYPE: IC50 (µM)

[[record]]
structure = "Cc1cc2cc(Oc3ccnc(Nc4cccc(CS(=O)(=O)NCCN(C)C)c4)n3)ccc2[nH]1"
observed = 0.041


====

- STUDY SYSTEM: VEGFR 3 (Homo sapiens, UniProt P35916)
- Sequence (P35916 25-1363): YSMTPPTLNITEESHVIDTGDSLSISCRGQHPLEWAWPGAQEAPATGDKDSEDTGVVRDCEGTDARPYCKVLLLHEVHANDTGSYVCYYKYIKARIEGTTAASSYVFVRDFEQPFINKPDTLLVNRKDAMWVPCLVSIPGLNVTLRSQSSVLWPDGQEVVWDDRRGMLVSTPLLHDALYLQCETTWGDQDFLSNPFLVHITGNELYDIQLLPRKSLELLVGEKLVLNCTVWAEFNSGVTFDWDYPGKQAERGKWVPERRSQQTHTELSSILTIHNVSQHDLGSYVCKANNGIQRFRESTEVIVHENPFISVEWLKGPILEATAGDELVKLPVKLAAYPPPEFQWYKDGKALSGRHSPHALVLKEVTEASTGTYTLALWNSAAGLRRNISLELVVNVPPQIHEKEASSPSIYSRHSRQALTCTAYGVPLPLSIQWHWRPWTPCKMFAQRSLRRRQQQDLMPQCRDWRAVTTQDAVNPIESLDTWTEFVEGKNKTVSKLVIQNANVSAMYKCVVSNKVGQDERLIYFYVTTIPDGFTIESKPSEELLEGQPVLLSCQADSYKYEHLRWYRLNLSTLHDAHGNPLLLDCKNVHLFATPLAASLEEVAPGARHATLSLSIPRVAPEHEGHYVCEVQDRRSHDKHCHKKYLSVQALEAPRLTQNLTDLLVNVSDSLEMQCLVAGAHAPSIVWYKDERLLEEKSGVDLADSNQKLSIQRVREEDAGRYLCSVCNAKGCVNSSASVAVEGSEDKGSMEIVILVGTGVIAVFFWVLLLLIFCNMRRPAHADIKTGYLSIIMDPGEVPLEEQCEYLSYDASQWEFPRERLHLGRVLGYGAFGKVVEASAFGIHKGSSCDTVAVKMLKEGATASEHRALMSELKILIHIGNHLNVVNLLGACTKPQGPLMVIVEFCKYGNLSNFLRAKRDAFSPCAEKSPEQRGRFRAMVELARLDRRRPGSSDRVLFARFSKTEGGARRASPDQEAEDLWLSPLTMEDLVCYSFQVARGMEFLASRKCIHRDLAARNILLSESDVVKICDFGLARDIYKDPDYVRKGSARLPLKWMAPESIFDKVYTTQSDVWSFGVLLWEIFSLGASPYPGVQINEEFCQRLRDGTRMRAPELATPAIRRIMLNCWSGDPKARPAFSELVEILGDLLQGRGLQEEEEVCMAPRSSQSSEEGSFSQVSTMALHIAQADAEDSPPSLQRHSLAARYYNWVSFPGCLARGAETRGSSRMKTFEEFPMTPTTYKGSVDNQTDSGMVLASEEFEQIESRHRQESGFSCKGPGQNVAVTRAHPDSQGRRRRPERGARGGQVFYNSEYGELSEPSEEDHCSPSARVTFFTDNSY
OBSERVATION TYPE: IC50 (nM)

[[record]]
structure = "Cc1cc2cc(Oc3ccnc(Nc4cccc(CS(=O)(=O)NCCN(C)C)c4)n3)ccc2[nH]1"
observed = 1


====

- STUDY SYSTEM: FLT3 (Homo sapiens, UniProt P36888)
- Sequence (P36888 27-993): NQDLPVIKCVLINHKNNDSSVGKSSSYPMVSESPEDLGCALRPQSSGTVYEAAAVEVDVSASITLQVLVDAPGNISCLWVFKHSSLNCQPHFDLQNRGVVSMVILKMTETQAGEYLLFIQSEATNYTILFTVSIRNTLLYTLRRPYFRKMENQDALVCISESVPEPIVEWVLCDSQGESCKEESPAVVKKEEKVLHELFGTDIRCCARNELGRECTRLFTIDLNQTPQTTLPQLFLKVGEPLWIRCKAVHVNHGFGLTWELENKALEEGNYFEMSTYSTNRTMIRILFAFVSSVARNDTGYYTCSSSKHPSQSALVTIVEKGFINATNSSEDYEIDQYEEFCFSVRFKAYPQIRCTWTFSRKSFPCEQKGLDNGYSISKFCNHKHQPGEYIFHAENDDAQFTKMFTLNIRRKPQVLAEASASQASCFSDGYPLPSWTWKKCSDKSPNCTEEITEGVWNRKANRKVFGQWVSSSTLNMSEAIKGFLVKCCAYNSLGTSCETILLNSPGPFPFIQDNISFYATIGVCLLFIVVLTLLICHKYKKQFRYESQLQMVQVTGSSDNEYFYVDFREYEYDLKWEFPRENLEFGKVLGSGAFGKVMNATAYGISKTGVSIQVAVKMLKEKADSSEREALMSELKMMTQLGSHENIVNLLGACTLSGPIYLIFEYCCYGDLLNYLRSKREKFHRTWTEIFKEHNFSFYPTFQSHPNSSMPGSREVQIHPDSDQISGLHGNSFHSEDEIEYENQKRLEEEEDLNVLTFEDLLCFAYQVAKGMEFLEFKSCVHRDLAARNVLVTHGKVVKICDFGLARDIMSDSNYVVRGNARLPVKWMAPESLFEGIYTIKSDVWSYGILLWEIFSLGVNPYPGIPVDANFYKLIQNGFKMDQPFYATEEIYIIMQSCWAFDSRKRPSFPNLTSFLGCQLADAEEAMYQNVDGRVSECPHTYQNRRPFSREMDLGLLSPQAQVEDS
OBSERVATION TYPE: IC50 (nM)

[[record]]
compound = "Cc1cc2cc(Oc3ccnc(Nc4cccc(CS(=O)(=O)NCCN(C)C)c4)n3)ccc2[nH]1 [Sulfatinib]"
observed = 67

